The origin of these recorded values is ChEMBL document CHEMBL3988442.

system: Wolbachia pipientis; assay: Anti-Wolbachia Cell-Based Screen; format: functional; set-up: scale not given: in the data most compounds retested in dose-response had high values; settings: 5 µM
About 13,000 (27%) of roughly 48,000 compounds showed an effect of 50% or more. Some of the results follow.
readout_name: Percent Effect (%)
Write it as a number; the unit % goes unstated.

# query: Percent Effect of entry CCOCCC(=O)NCC1CCCO1 (configuration not stated)
5.918

Percent Effect lookup needed for CCOc1ccc(C(=O)NC2CC2)cc1C , thanks.
-6.669

----------
A collection of compounds and their measured Percent Effect
system: Wolbachia pipientis; test: Anti-Wolbachia Cell-Based Screen; format: functional; set-up: scale not given: in the data most compounds retested in dose-response had high values; conditions: 5 µM
Out of some 48,000 compounds screened, about 13,000 (27%) showed an effect of 50% or more. Some of the results follow.
Kindly provide the numeric value in % only, without the unit symbol.

# compound, value
measured = [
    ("N#CCCNC(=O)CN1CC(n2cccn2)C1", 139.2),
    ("c1cc(CN2CCC(c3ccncc3)CC2)cc(Cn2cccn2)c1", -4.875),
    ("N#Cc1ccc(NCCCOCC2CCOC2)c(F)c1 (configuration not stated)", -19.41),
    ("Cc1nn(C)c(C)c1CN(C)S(=O)(=O)c1c(C)n[nH]c1C", 32.27),
    ("O=C(Cc1cccs1)N1Cc2nc(COCC3CC3)oc2C1", 106.2),
]

If you can, please state the reported Percent Effect value of COc1ccsc1C(=O)N1CCCC(n2nc(C)nc2C)C1 (configuration not stated) .
-12.01

What Percent Effect value was documented for this compound, COCC1CN(S(=O)(=O)c2cccs2)Cc2ncnn2C1 (configuration not stated) ?
-4.986

Value lookup for Percent Effect; key = O=C(NCC1CC[C@@H]2[C@@H]1OCCN2Cc1cccs1)c1ccco1.O=C(O)C(F)(F)F (some centres not stated)
0.6461

Which Percent Effect value belongs to Cn1ccnc1CCNS(=O)(=O)c1cccc(Br)c1 ?
11.32

Entry O=C(NCc1ccccc1)N1Cc2nc(COCC3CC3)oc2C1 has what Percent Effect?
6.767

Requested read-out: Percent Effect. Entry: CCS(=O)(=O)c1ccc(CNc2c(Cl)cccc2C#N)cc1
-6.207

// lookup Percent Effect for N#Cc1cc(C(F)(F)F)ccc1NCC1CCS(=O)(=O)CC1
-17.13

Param item = Cc1nc([C@@H]2C[C@H]3CN(Cc4scnc4C)C[C@H]3O2)no1 ; retrieve measured Percent Effect.
-8.778

Entry O=C(CN1CC(n2cccn2)C1)NCC1(c2ccccc2)CCC1 : reported Percent Effect = ?
14.59

# query: Percent Effect of entry CC(C)(C)c1nc(CN(CCC2CCCCC2)CC(N)=O)no1
228.2

Field request: Percent Effect | item: N#Cc1ccc(Cl)cc1NCC1CC1
111.8

// returns reported Percent Effect for input CCC(CNC(=O)c1ccc(C(N)=O)cc1)Oc1cccc(F)c1 (configuration not stated)
-8.287

----------
# Percent Effect listing for each entry below
test system: Wolbachia pipientis; assay: Anti-Wolbachia Cell-Based Screen; assay type: functional; parameters: scale not given: in the data most compounds retested in dose-response had high values; details: 5 µM
Among all 48,000 compounds or so, about 13,000 (27%) showed an effect of 50% or more. The list shows a part of the results.
Answer format: number, then unit.

# compound, Percent Effect
measured = [
    ("CC(=O)N1CC2(CCN(C(=O)c3cccc4[nH]ccc34)CC2)C1", "-2.889%"),
    ("CS(=O)(=O)c1ccc(CNC(=O)NCC2CCOC2)cc1 (stereo not given)", "-15.52%"),
    ("CN(Cc1cc(Br)cn1C)C(=O)Cc1cccc(O)c1", "-22.7%"),
    ("Cc1ncsc1C(=O)N1CCc2nnc(C3CCCCN3C)n2CC1 (stereo not given)", "103.3%"),
]

What measured Percent Effect goes with Cc1ccc(C#N)c(N2CCCC(c3nccn3Cc3cscn3)C2)n1 (stereo not given) ?
8.413%

Which Percent Effect is reported for this compound? Cc1ncc(C(=O)N2CC(C(=O)N3CCCCCC3)C2)c(C)n1
132.1%

Any idea what Percent Effect was measured for O=C1CC(c2ccco2)c2sc(C(=O)O)c(-c3ccccc3)c2N1 (stereo not given) ?
3.632%

Can you share its Percent Effect? I mean this compound: CC(C)Cn1cncc1CNC1CCSC1 (stereo not given)
0.928%

GET /values?readout=Percent Effect&item= Cc1nc(C)c(C(=O)N2CCc3nnc(C4CCCCN4C)n3CC2)o1 (stereo not given)
112.5%

Could you share which Percent Effect value was measured for COc1ccc2cccc(CC(=O)NCCc3n[nH]c(=O)[nH]3)c2c1 ?
-7.606%

# input compound: Cc1cc(CNc2ccc(C(=O)N3CCCC(C)C3)cc2C)no1 (stereo not given) ; wanted: its Percent Effect
0.152%

Suppose we examine the compound CCc1noc(CNc2ccc(C(=O)N3CCCC(C)C3)cc2C)n1 (stereo not given) ; what Percent Effect value has been reported?
-0.296%

State the recorded Percent Effect for this entry: Cc1c(I)cccc1C(=O)NCc1nnc[nH]1
-11.57%

I would be grateful if you could share the reported Percent Effect for Cc1ncc(C(=O)N2CC(C(=O)N3CCOCC3)C2)c(C)n1 .
106.6%

Percent Effect for CSCC(C)(O)CNC(=O)c1ccc(Br)cc1F (stereo not given) ?
2.874%
